- study target: Bcr-abl T315I (Ba/F3.p210^T315I cells) (Homo sapiens, UniProt P00519, T315I, cells depend on it)
- experiment: Proliferation assay (MTT), T315I mutant Bcr-abl expressing Ba/F3 cells
- Assay type: cell-based, murine
- cond: 48 h, drug concentrations 0.005-10 μM
Recorded IC50 by entry

As a guide, the following entries are already answered.
CC1CN(C(=O)c2ccc3c(Nc4ccc(OC(F)(F)F)cc4)ncnc3c2)CC(C)N1 (centres unmarked) | > 10 µM
O=C(Nc1cccc(C(F)(F)F)c1)c1ccc2c(Nc3ccc(OC(F)(F)F)cc3)ncnc2c1 | 1.56 µM
Nc1cc(C2CC2)n(-c2cc(Nc3ccc(OC(F)(F)F)cc3)ncn2)n1 | > 10 µM
O=S(=O)(NCCO)c1ccc(-c2cc(Nc3ccc(OC(F)(F)F)cc3)ncn2)cc1 | 1.45 µM

Next up:
Asked: Can you look up the measured IC50 of Cc1ccc(S(=O)(=O)Nc2ccc(-c3ncnc(Nc4ccc(OC(F)(F)F)cc4)c3C)cc2)cc1 for me?
Given back: > 10 µM

* * *

- study target: Bcr-abl T315I (Ba/F3.p210^T315I cells) (Homo sapiens, UniProt P00519, T315I, cells depend on it)
- experiment: Proliferation assay (MTT), T315I mutant Bcr-abl expressing Ba/F3 cells
- cond: 48 h, drug concentrations 0.005-10 μM
parameter: pIC50
Remember, pIC50 is on a log scale: it is -log10 of the molar concentration.

As a guide, the following entries are already answered.
CN1CCN(c2cc(-c3cc(Nc4ccc(OC(F)(F)F)cc4)ncn3)ccn2)CC1 | 6.41
O=C(NC1CCN(Cc2ccccc2)C1)c1cc2c(Nc3ccc(OC(F)(F)F)cc3)ncnc2s1 (centres unmarked) | 6.21

Next up:
Asked: Can you look up the measured pIC50 of NC(=O)CCn1ccc2c(Nc3ccc(OC(F)(F)F)cc3)ncnc21 for me?
Given back: 5.19

* * *

- study target: Bcr-abl T315I (Ba/F3.p210^T315I cells) (Homo sapiens, UniProt P00519, T315I, cells depend on it)
- experiment: Proliferation assay (MTT), T315I mutant Bcr-abl expressing Ba/F3 cells
- cond: 48 h, drug concentrations 0.005-10 μM
parameter: pIC50
Remember, pIC50 is on a log scale: it is -log10 of the molar concentration.

As a guide, the following entries are already answered.
CCN(CC)CCCC(C)NC(=O)c1cc2c(Nc3ccc(OC(F)(F)F)cc3)ncnc2n1C (centres unmarked) | 5.40
FC(F)(F)Oc1ccc(Nc2cc(-c3c[nH]c4ccccc34)ncn2)cc1 | 5.03

Asked: Can you look up the measured pIC50 of FC(F)(F)Oc1ccc(Nc2cc(-c3cccc4[nH]ccc34)ncn2)cc1 for me?
Given back: 5.18

Asked: Can you look up the measured pIC50 of CC(C)C(CCO)NC(=O)CCn1ccc2c(Nc3ccc(OC(F)(F)F)cc3)ncnc21 (centres unmarked) for me?
Given back: 5.68

Asked: Can you look up the measured pIC50 of CS(=O)(=O)c1ccc(-c2cc(Nc3ccc(OC(F)(F)F)cc3)ncn2)cc1 for me?
Given back: 5.21

Asked: Can you look up the measured pIC50 of N#CCc1cccc(-c2cc(Nc3ccc(OC(F)(F)F)cc3)ncn2)c1 for me?
Given back: 5.47

Asked: Can you look up the measured pIC50 of CCNS(=O)(=O)c1ccc(-c2cc(Nc3ccc(OC(F)(F)F)cc3)ncn2)cc1 for me?
Given back: 5.73

Asked: Can you look up the measured pIC50 of O=S(=O)(c1ccc(-c2cc(Nc3ccc(OC(F)(F)F)cc3)ncn2)cc1)N1CCCCC1 for me?
Given back: 5.85

Asked: Can you look up the measured pIC50 of Cc1c(-c2cc(Nc3ccc(OC(F)(F)F)cc3)ncn2)cnn1-c1ccccc1 for me?
Given back: 5.21

Asked: Can you look up the measured pIC50 of NS(=O)(=O)c1ccc(-c2cc(Nc3ccc(OC(F)(F)F)cc3)ncn2)cc1 for me?
Given back: 5.98

Asked: Can you look up the measured pIC50 of CCN(CC)S(=O)(=O)c1ccc(-c2cc(Nc3ccc(OC(F)(F)F)cc3)ncn2)cc1 for me?
Given back: 5.41

Asked: Can you look up the measured pIC50 of CCS(=O)(=O)n1cc(-c2cc(Nc3ccc(OC(F)(F)F)cc3)ncn2)cn1 for me?
Given back: 5.37

Asked: Can you look up the measured pIC50 of CS(=O)(=O)Nc1ccc(-c2cc(Nc3ccc(OC(F)(F)F)cc3)ncn2)cc1 for me?
Given back: 6.22
